Consider the following compounds; for each one, report its IC50.
Test system: HeLa
assay: Cytotoxicity against human HeLa cells
Format: functional, cell-based
studyConditions: Homo sapiens, HeLa; read-out: pIC50 (converted)
Record the value in µM, omitting the unit from your answer.

Please give measured IC50 of the following entry: CCCN(CCC)C(=O)CC[C@@H](C)[C@H]1CC[C@H]2[C@@H]3CC[C@@H]4C[C@]5(CC[C@]4(C)[C@H]3C[C@H](OC(C)=O)[C@]12C)OO[C@@]1(CC[C@@]2(C)[C@H](CC[C@@H]3[C@@H]2C[C@H](OC(C)=O)[C@]2(C)[C@@H]([C@H](C)CCC(=O)N(CCC)CCC)CC[C@@H]32)C1)OO5 105

Please give measured IC50 of the following entry: CC(=O)O[C@H]1C[C@H]2[C@@H](CC[C@@H]3C[C@]4(CC[C@@]32C)OO[C@@]2(CC[C@@]3(C)[C@H](CC[C@@H]5[C@@H]3C[C@H](OC(C)=O)[C@]3(C)[C@@H]([C@H](C)CCC(=O)O)CC[C@@H]53)C2)OO4)[C@@H]2CC[C@H]([C@H](C)CCC(=O)O)[C@@]12C 5.25

Please give measured IC50 of the following entry: COC(=O)CC[C@@H](C)[C@H]1CC[C@H]2[C@@H]3CC[C@@H]4CC5(CC[C@]4(C)[C@H]3C[C@H](OC(C)=O)[C@]12C)OOC1(CCC2(CCCCCCC2)CC1)OO5 10.2
